# PROTOCOL_NOTES: in vitro
# TEST_PARAMETERS: human, HepG2 cells; n = 1
PROPERTY_NAME: CC50 at 48 h

Some solved cases for reference:
COMPOUND | CC50 at 48 h
CCc1ccc(NC(=O)N2CC(C(=O)N(C)C)C3(CCOCC3)C2)cc1 (stereo not drawn) | 0.00769 µM
CC(=O)N(C)C1=C(N2CCOCC2)C(=O)c2ccccc2C1=O | 10.9 µM

# lookup: CC50 at 48 h of "COc1ccccc1NS(=O)(=O)c1cc(NC(=O)c2ccc(Cl)nc2)ccc1Cl"
19.3 µM

# lookup: CC50 at 48 h of "O=C(/C(=C/c1ccc(Cl)cc1)c1nc2ccccc2[nH]1)c1cccs1"
24.3 µM

---

# PROTOCOL_NOTES: in vitro
# TEST_PARAMETERS: human, HepG2-A16-CD81EGFP cells, uninfected
Binarize viability at 48 h, 3 µM at 90%; below is rule met, at or above is rule not met.

COMPOUND | LABEL_CLASS
NC1=NC[C@@H](Cc2ccc(O)cc2)N1CCCCC1CCCCC1 [MLS000888822-01] | rule not met
c1cncc(-c2nnc(-c3cccnc3)nn2)c1 [MLS000075752-01] | rule not met
NS(=O)(=O)c1cccc(NC(=O)CSc2nn(-c3ccccc3)c(=S)s2)c1 [MLS000339501-01] | rule not met
Cc1cc(Cl)c(S(=O)(=O)N2CCN(c3ccccn3)CC2)cc1OCC(=O)NC1CCCCC1 [MLS000693481-01] | rule not met
COc1ccccc1Nc1cnc2ccc(-c3ccc(OC)c(OC)c3)nn12 [NCGC00412573-01] | rule met

Is it true that viability at 48 h, 3 µM reported for Cn1nc(C(F)(F)F)c(-c2cccc(C(F)(F)F)c2)c1NC(=O)Nc1ccc(F)cc1 [MLS000830770-01] is less than 90%?
rule not met

Is it true that viability at 48 h, 3 µM reported for COc1cc(O)c(C(CCN2CCN(c3ccccc3)CC2)c2ccc(N(C)C)cc2)c(OC)c1 (stereo not drawn) [MLS000879536-01] is less than 90%?
rule not met

Is it true that viability at 48 h, 3 µM reported for COc1ccccc1CN1COc2ccc3c(oc(=O)c4ccccc43)c2C1 [NCGC00116378-01] is less than 90%?
rule not met

Is it true that viability at 48 h, 3 µM reported for CCOc1cc(CN2CCCC(N3CCN(c4ccc(F)cc4)CC3)C2)ccc1OC (stereo not drawn) [MLS001162894-01] is less than 90%?
rule not met

Is it true that viability at 48 h, 3 µM reported for CCn1cc(C(=O)O)c(=O)c2cnc(N3CCN(/C(S)=N/c4ccccc4)CC3)nc21 [MLS000777921-01] is less than 90%?
rule not met

Is it true that viability at 48 h, 3 µM reported for Cc1cc(NC2C3CC4CC(C3)CC2C4)n2nnnc2n1 (stereo not drawn) [MLS000033680-01] is less than 90%?
rule not met

Is it true that viability at 48 h, 3 µM reported for COc1ccc(-c2cc(=O)oc3c4c(ccc23)OCN(Cc2ccccc2)C4)cc1 [NCGC00116344-01] is less than 90%?
rule not met

Is it true that viability at 48 h, 3 µM reported for CCc1ccc2c(c1)C1(NN=C(c3ccc(C)cc3)S1)C(=O)N2 (stereo not drawn) [MLS000528737-01] is less than 90%?
rule met
